target: D(1A) dopamine receptor (Homo sapiens); experiment: Antagonist of Human D 1 Dopamine Receptor: qHTS; conditions: HEK293 TREx D1 cells, calcium flux, dopamine EC80; at 10 µM; note: % is set by controls: 0 for no effect and ±100 for the full control effect
Among all 360,000 compounds or so, about 11,000 (3.1%) were called active. Cut-off read from the data, not from the text of the source: active = activity change below about -30%; inactive = the rest. The sample as a whole holds a higher share of actives than the screen did.
The reply should name one outcome from label 1 (active), label 0 (inactive)

Field: example entries. Status: answers known.
MOLECULE	ANSWER LABEL
COC(=O)c1ccccc1NC(=O)c1cnn(-c2ccc(F)cc2)c1-n1cccc1	label 0
COc1ccc(C(=O)NC2CC2)cc1OC1CCN(Cc2cnn(C)c2)CC1	label 0
CC(C)N(Cc1nnc(-c2ccc(Cl)cc2)o1)C(=O)C1=COCCO1	label 0
Cc1ccc(-c2cc(N)n(Cc3cccc(Cl)c3)n2)cc1	label 0
CCOc1ccc(NC(=O)N(CCC(C)C)C(C)c2ccco2)cc1 (stereo not drawn)	label 1

Record request — test call for CC(=O)N1CCN(CC(=O)Nc2ccc(C)c(F)c2)CC1
label 0

Record request — test call for CCC(=O)NC(NCC1CCCO1)C(Cl)(Cl)Cl (stereo not drawn)
label 0

Record request — test call for O=C(NCCCN1CCOCC1)c1ccccc1NS(=O)(=O)c1ccc(F)cc1
label 1

Record request — test call for CC(=O)Nc1cccc(C(=O)OCC(=O)c2ccc3c(c2)OCO3)c1
label 0

Record request — test call for NS(=O)(=O)c1ccc2nc(NC(=O)C3=COCCO3)sc2c1
label 0

Record request — test call for Cc1cc(C)cc(-n2c(SCC(=O)NCC3CCCO3)nc3c([nH]c4ccccc43)c2=O)c1 (stereo not drawn)
label 0

Reference source: PubChem BioAssay AID504652
